# nuclei count annotations
# test description: endothelial E-selectin expression blockers – imaging, HUVEC, immunofluorescence, MLSMR starter and 10KST1 sets, primary screen (AID 487);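 further: 100% = median nuclei count of all wells on the same plate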
# conditions used: HUVEC TNFalpha-induced E-selectin immunofluorescence imaging, at 2 µM; measured here: cell number, toxicity
The answer is to be given in %; state only the numeric part.

compound | unit of measurement | result number
CCOC(=O)C1CCCN(Cc2nc(N)nc(Nc3ccc(C)cc3)n2)C1 (centres undefined) | % | 130
CCc1ccc(NC(=O)C2CC(=O)N(C(C)C)C2)cc1 (centres undefined) | % | 75.6
CCOc1cc(C(=O)Nc2ccon2)cc(OCC)c1OCC | % | 108

Now turn to the next compound.
Please give the documented nuclei count of CC1CCCCN1S(=O)(=O)c1ccc(NC(=O)c2cccs2)cc1 (centres undefined)
104
